Test: in vivo
Settings: rat, in vivo, ip; rats, intraperitoneal, observed every 30 minutes over a 6-hour period; cataleptic = homolateral extremities crossed at least 10 seconds; read-out: ED50 (dose at which 50% of the animals are cataleptic)
# ED50 at 6 h per entry
Please reply with the bare figure in mg/kg and do not write the unit itself.

CN(C)CC#CC1=Cc2ccccc2Sc2ccc(Cl)cc21.O=C(O)/C=C\C(=O)O: 100

// below: ED50 at 6 h requested for another compound
Entry under review: CN(C)CCCN1c2ccccc2Sc2ccc(Cl)cc21 [Chlorpromazine, reference compound] . Reported ED50 at 6 h? 6
